Data provenance is ChEMBL document CHEMBL4482317.

biological target: UniProt:Q9UKL6
Sequence (Q9UKL6 whole entry): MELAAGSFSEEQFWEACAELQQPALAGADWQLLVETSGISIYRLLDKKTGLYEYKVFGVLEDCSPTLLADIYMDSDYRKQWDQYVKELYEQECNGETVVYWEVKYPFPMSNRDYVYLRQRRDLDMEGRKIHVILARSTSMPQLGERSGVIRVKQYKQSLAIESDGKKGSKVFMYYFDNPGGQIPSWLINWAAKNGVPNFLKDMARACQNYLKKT
value-type: IC50 (µM)
Numbers only, in µM.

Noted IC50 for Cc1ccc(NC(=O)C(Sc2cccc[n+]2[O-])c2ccccc2)cc1Cl (stereo unspecified) , tested on UniProt:Q9UKL6: 100
